Target: T1, human PD-L1 (construct not stated) (human, UniProt Q9NZQ7 19-239, limits assumed)
T1 construct: also called B7-H1 (PD-L1); PD-L1 protein
T1 sequence (Q9NZQ7 19-239 limits assumed): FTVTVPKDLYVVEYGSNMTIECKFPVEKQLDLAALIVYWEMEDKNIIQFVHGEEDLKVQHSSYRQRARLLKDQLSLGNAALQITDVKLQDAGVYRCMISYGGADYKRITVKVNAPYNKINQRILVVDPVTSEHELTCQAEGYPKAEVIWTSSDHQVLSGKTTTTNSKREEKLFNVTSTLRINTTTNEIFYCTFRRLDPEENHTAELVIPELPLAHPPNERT
Experiment: BLI Octet Red 96, affinity ranking
value.kind: kon (M⁻¹ s⁻¹)
Numbers only, in M⁻¹ s⁻¹.

| binder | kon [M⁻¹ s⁻¹] |
| --- | --- |
| Hu1210-4 (antibody, V domains shown, Hu1210 VH.2 x Vk.1; human gamma 1 / kappa constant domains) VH: EVQLVESGGGLVKPGGSLRLSCAASGFTFSSYDMSWIRQAPGKGLEWVSTISDGGGYIYYSDSVKGRFTISRDNAKNSLYLQMNSLRAEDTAVYYCAREFGKRYALDYWGQGTTVTVSS VL: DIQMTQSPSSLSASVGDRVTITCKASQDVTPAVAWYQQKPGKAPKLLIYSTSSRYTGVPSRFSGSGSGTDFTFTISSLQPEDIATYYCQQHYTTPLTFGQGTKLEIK | 71200 |
| Hu1210-13 (antibody, V domains shown, Hu1210 VH.3 x Vk.1; human gamma 1 / kappa constant domains) VH: EVQLLESGGGLVQPGGSLRLSCAASGFTFSSYDMSWVRQAPGKGLEWVSTISDGGGYIYYSDSVKGRFTISRDNSKNTLYLQMNSLRAEDTAVYYCAREFGKRYALDYWGQGTTVTVSS VL: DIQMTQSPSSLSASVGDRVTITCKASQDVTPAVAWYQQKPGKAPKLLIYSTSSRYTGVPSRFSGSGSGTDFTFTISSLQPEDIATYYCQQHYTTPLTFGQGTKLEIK | 83800 |

// below: kon requested for another binder
Challenge: Requested field: kon. Item: H1210 chimera (antibody, V domains shown, also called chimeric antibody) VH: EVKLVESGGDLVKPGGSLKLSCAASGFTFSSYDMSWVRQTPEKSLEWVATISDGGGYIYYSDSVKGRFTISRDNAKNNLYLQMSSLRSEDTALYICAREFGKRYALDYWGQGTSVTVSS VL: DIVMTQSHKFMSTSVGDRVSISCKASQDVTPAVAWYQQKPGQSPKLLIYSTSSRYTGVPDRFTGSGSGTDFTFTISSVQAEDLAVYYCQQHYTTPLTFGAGTKLELK
Response given: 162000
